Reference source: the supplement of paper PMC10127200

Kindly state Euclidean distance for each of the entries shown.
# Test system: DU145
# METHOD_DESCRIPTION: Euclidean distance of Cell Painting phenotypic profile (signed KS, 77 features) to DMSO centroid (dimensionless distance); 5 or 10 uM (library dependent); higher = stronger phenotypic change vs DMSO (phenoactivity)
# PARTICULARS: 48 h
Counter-ions that a name gives are not always drawn.
Answers are plain numbers.

As a guide, the following entries are already answered.
>>> val("Cc1cc(NS(=O)(=O)c2ccc(N)cc2)nc(C)n1")
0.503
>>> val("FC(F)(c1ccc2ncccc2c1)c1nnc2ccc(-c3ccncc3)nn12")
2.54
>>> val("COc1c(C)cnc(Cn2cnc3c(Cl)nc(N)nc32)c1C")
3.08
>>> val("N=C(N)NC(=N)NCCc1ccccc1 [Phenformin HCl]")
1.14
>>> val("C=CCc1ccc(O)c(-c2ccc(O)c(CC=C)c2)c1")
1.22
>>> val("CCC(=O)N1CCN(c2ccc(-n3c(=O)ccc4cnc5ccc(-c6cnc7ccccc7c6)cc5c43)cc2C(F)(F)F)CC1")
2.74

Each compound below has a recorded value; state its Euclidean distance.
1. C[N+](C)(C)CCOC(N)=O
2. CN(C)[C@@H]1C(O)=C(C(N)=O)C(=O)[C@@]2(O)C(O)=C3C(=O)c4c(O)cccc4[C@@](C)(O)[C@H]3[C@H](O)[C@@H]12 [Oxytetracycline Dihydrate]
3. CNCCCN1c2ccccc2CCc2ccccc21 [Desipramine Hydrochloride]

Result string:
[0.687, 1.09, 1.11]

----------
# Test system: DU145
# METHOD_DESCRIPTION: Euclidean distance of Cell Painting phenotypic profile (signed KS, 77 features) to DMSO centroid (dimensionless distance); 5 or 10 uM (library dependent); higher = stronger phenotypic change vs DMSO (phenoactivity)
# PARTICULARS: 48 h
Structures can show the parent of a compound that is named as a salt.
Decide using Euclidean distance: a value greater than or equal to 1 is Met, a smaller one is Not met.

Below, 6 molecules whose answers are already recorded.
>>> class_label("CC1(C)CC[C@]2(NC(=O)C(C)(F)F)CC[C@]3(C)[C@H](C(=O)C=C4[C@@]5(C)C=C(C#N)C(=O)C(C)(C)[C@@H]5CC[C@]43C)[C@@H]2C1 [Omaveloxolone (RTA-408)]")
"Met"
>>> class_label("Cc1ccc(Nc2nccc(N(C)c3ccc4c(C)n(C)nc4c3)n2)cc1S(N)(=O)=O")
"Met"
>>> class_label("C/C(=C\\c1ccc(C(=O)O)cc1)c1ccc2c(c1)C(C)(C)CCC2(C)C")
"Met"
>>> class_label("c1cncc(CN2CCC(n3ncc4c(N5CCOCC5)nc(-c5ccc6[nH]ccc6c5)nc43)CC2)c1")
"Met"
>>> class_label("O=C(Nc1ncc(SCCN2CCCC2)s1)[C@]1(c2ccc(S(=O)(=O)C3CC3)cc2)C[C@H]1C1CCCCC1")
"Met"
>>> class_label("O=C(O)CC[C@H]1CC[C@@](c2cc(F)ccc2F)(S(=O)(=O)c2ccc(Cl)cc2)CC1")
"Not met"

Query string: Is reported Euclidean distance greater than or equal to 1 here: N=C(N)Nc1ccc(C(=O)Oc2ccc3cc(C(=N)N)ccc3c2)cc1 [Nafamostat Mesylate]
Result string: Met

Query string: Try this molecule next: COc1cc(C(C)=O)ccc1OCCCN1CCC(c2noc3cc(F)ccc23)CC1
Result string: Not met

Query string: Try this molecule next: CCOC(=O)Nc1cc(-c2ccc(C)c(NS(C)(=O)=O)c2)nn2c(C)nnc12
Result string: Met

Query string: Try this molecule next: C[C@H]1COc2c(N3CCN(C)CC3)c(F)cc3c(=O)c(C(=O)O)cn1c23 [Levofloxacin hydrate]
Result string: Met

Query string: Try this molecule next: N#Cc1ccc2[nH]cc(CCCCN3CCN(c4ccc5oc(C(N)=O)cc5c4)CC3)c2c1 [Vilazodone HCl]
Result string: Met

----------
# Tested on: A549
# METHOD_DESCRIPTION: Euclidean distance of Cell Painting phenotypic profile (signed KS, 77 features) to DMSO centroid (dimensionless distance); 5 or 10 uM (library dependent); higher = stronger phenotypic change vs DMSO (phenoactivity)
# PARTICULARS: 48 h
Structures can show the parent of a compound that is named as a salt.
MEASURED_QUANTITY: Euclidean distance
Give bare numbers.

>>> val("O=C1CN(/N=C/c2ccc(-c3ccc([N+](=O)[O-])cc3)o2)C(=O)N1 [Dantrolene sodium]")
0.503
>>> val("CN(C)CCOC(c1ccc(Cl)cc1)c1ccccn1 (centres undefined) [CarbinoxaMine Maleate]")
0.778
>>> val("C[C@]12CC[C@@H]3c4ccc(O)cc4CC[C@H]3[C@@H]1C[C@@H](O)[C@@H]2O")
0.835
>>> val("OCc1c[nH]c2ccccc12")
1.17
>>> val("Cc1c(Cl)cccc1Nc1ccccc1C(=O)O")
0.83
>>> val("CCN(CC)C(=O)c1cccnc1 [Nikethamide]")
1.13

Each molecule below has a recorded value; state its Euclidean distance.
1. CC1CCc2cc(F)cc3c(=O)c(C(=O)O)cn1c23 (centres undefined)
2. CCC[C@@H]1C[C@@H](C(=O)N[C@@H]([C@H]2O[C@H](SC)[C@H](O)[C@@H](O)[C@H]2O)[C@H](C)Cl)N(C)C1 [Clindamycin HCl]

Result string:
[0.57, 0.576]

Query string: Item Clc1ccccc1CN1CCc2sccc2C1 [Ticlopidine HCl] has what recorded Euclidean distance?
Result string: 1.12

----------
# Test system: HEPG2
# METHOD_DESCRIPTION: Euclidean distance of Cell Painting phenotypic profile (signed KS, 77 features) to DMSO centroid (dimensionless distance); 5 or 10 uM (library dependent); higher = stronger phenotypic change vs DMSO (phenoactivity)
# PARTICULARS: 48 h
Structures can show the parent of a compound that is named as a salt.
MEASURED_QUANTITY: Euclidean distance
Answers are plain numbers.

As a guide, the following entries are already answered.
>>> val("CC1(C)NC(=O)N(c2ccc([N+](=O)[O-])c(C(F)(F)F)c2)C1=O [Nilutamide]")
0.474
>>> val("CCC(=O)Oc1ccc2c(c1)CCC1C2CCC2(C)C(OC(=O)CC)CCC12 (stereo not drawn) [17-Beta-Estradiol-3.17-Dipropionate]")
0.326
>>> val("CCn1c(=O)c(-c2cc(NC(=O)Nc3ccccc3)c(F)cc2Br)cc2cnc(NC)cc21 [Ripretinib (DCC-2618)]")
2.27
>>> val("N#Cc1ccnc(N2C(=O)CC[C@H]2C(=O)N(c2cncc(F)c2)[C@H](C(=O)NC2CC(F)(F)C2)c2ccccc2Cl)c1")
0.986
>>> val("CC(C)(Sc1ccncc1-c1ccc(C#N)c2ccccc12)C(=O)O [Verinurad (RDEA3170)]")
0.457
>>> val("COCCc1ccc(OCC(O)CNC(C)C)cc1 (stereo unspecified) [Metoprolol Tartrate]")
0.507
>>> val("CCCSc1ccc2[nH]c(NC(=O)OC)nc2c1")
2.15
>>> val("NS(=O)(=O)c1cc2c(cc1Cl)N=CNS2(=O)=O [Chlorothiazide]")
0.662

Each molecule below has a recorded value; state its Euclidean distance.
1. COc1c2occc2cc2ccc(=O)oc12
2. CCCNCC(O)COc1ccccc1C(=O)CCc1ccccc1 (stereo unspecified) [Propafenone HCl]
3. COc1ccc([C@@H]2Sc3ccccc3N(CCN(C)C)C(=O)[C@@H]2OC(C)=O)cc1 [Diltiazem HCl]
4. COc1ccc(CNC(=O)Nc2ncc([N+](=O)[O-])s2)cc1
5. CN1CCc2nc(C(=O)N[C@@H]3C[C@@H](C(=O)N(C)C)CC[C@@H]3NC(=O)C(=O)Nc3ccc(Cl)cn3)sc2C1
6. CCOc1ccc(Cc2cc([C@@H]3O[C@H](SC)[C@@H](O)[C@H](O)[C@H]3O)ccc2Cl)cc1
7. CC1(C)[C@H](C(=O)O)N2C(=O)C[C@H]2S1(=O)=O [Sulbactam sodium]

Result string:
1: 0.988; 2: 0.85; 3: 0.773; 4: 1.02; 5: 0.275; 6: 0.553; 7: 0.675

Each molecule below has a recorded value; state its Euclidean distance.
1. Nc1ccc(S(=O)(=O)Nc2ccc(Cl)nn2)cc1
2. c1ccc2c(CCNc3ccc(Nc4ccncc4)cc3)c[nH]c2c1
3. C#CCN(C)Cc1ccccc1 [Pargyline hydrochloride]
4. Cc1cc2c(F)c(Oc3ncnn4cc(OC[C@@H](C)O)c(C)c34)ccc2[nH]1
5. O=C(O)c1ccc(N2C(=O)/C(=C\c3ccc(-c4ccc([N+](=O)[O-])cc4)o3)C=C2c2ccccc2)cc1
6. COc1cccc(C=NCCN=Cc2cccc(OC)c2[O-])c1[O-].[Cl-].[Mn+3]

Result string:
1. 0.669
2. 2.65
3. 0.696
4. 1.24
5. 1.83
6. 2.11

----------
# Test system: OVCAR4
# METHOD_DESCRIPTION: Euclidean distance of Cell Painting phenotypic profile (signed KS, 77 features) to DMSO centroid (dimensionless distance); 5 or 10 uM (library dependent); higher = stronger phenotypic change vs DMSO (phenoactivity)
# PARTICULARS: 48 h
Structures can show the parent of a compound that is named as a salt.
Kindly state Euclidean distance for each of the entries shown.
Numbers only.

Each compound below has a recorded value; state its Euclidean distance.
1. CCCOc1ccc(C(=O)OCCN(CC)CC)cc1N [Proparacaine HCl]
2. O=c1cc(N2CCOCC2)oc2c1ccc1ccccc12
3. CCCc1nc(C(C)(C)O)c(C(=O)OCc2oc(=O)oc2C)n1Cc1ccc(-c2ccccc2-c2nnn[nH]2)cc1
4. CC(=O)N[C@H]1[C@H]([C@H](O)[C@H](O)CO)OC(C(=O)O)=C[C@@H]1NC(=N)N

Result string:
1. 1.27
2. 4.01
3. 3.28
4. 1.21

Query string: Item Nc1nccc(Oc2ccc(NC(=O)c3c[nH]cc(-c4ccc(F)cc4)c3=O)cc2F)c1Cl has what recorded Euclidean distance?
Result string: 1.62
